Assay: MMV: MTT Cytotoxicity Assay Day 7 pi of Assay #7 (compound washed out Day 1 pi), U87-CD4-CXCR4 cells, % cell death @ 5mM compound
Type: toxicity, cell-based
Conditions: human, u87-cd4-cxcr4, 5000 µM
Item-by-item account of % Cell Death
Could you respond with only the numeric value?

Answered examples (2):
{"COMPOUND": "Cc1ccc(-c2cc(C(=O)Nc3ccc(S(=O)(=O)N4CCCCC4)cc3)[nH]n2)c(O)c1", "% Cell Death": -29}
{"COMPOUND": "Cc1ccnc(NC(c2cccc(OCc3ccccc3)c2)c2ccc3cccnc3c2O)c1 (stereo unspecified)", "% Cell Death": 37}

For reference, reported % Cell Death for "O=C(NCc1ccco1)C1CCN(S(=O)(=O)c2ccc(Cl)cc2)CC1" stands at -15

For reference, reported % Cell Death for "CN1CCN(c2nc(Nc3ccc(O)cc3)nc3ccccc23)CC1.Cl" stands at -23

For reference, reported % Cell Death for "COc1cc(CNCCc2ccc(Cl)cc2)cc(OC)c1O" stands at 11

For reference, reported % Cell Death for "Cc1sc2ncnc(Sc3nc4ccccc4[nH]3)c2c1C" stands at -5

====

Assay: MMV: MTT Cytotoxicity Assay Day 3 pi, U87-CD4-CXCR4 cells, % cell death @ 5mM compound
Assay type: toxicity, cell-based
Details: human, u87-cd4-cxcr4, 5000 µM
Item-by-item account of % Cell Death
Could you respond with only the numeric value?

Answered examples (5):
{"COMPOUND": "Oc1ccc2ccccc2c1CNc1nc2ccccc2[nH]1", "REPORTED_RESULT": 32}
{"COMPOUND": "CCN(CC)CCNc1ncnc2c1[nH]c1ccc(Br)cc12", "REPORTED_RESULT": 24}
{"COMPOUND": "CCOc1ccccc1NC(=O)CN1CCN(C(=O)c2ccco2)CC1", "REPORTED_RESULT": -22}
{"COMPOUND": "O=C(Nc1ccc(-c2nc3cc(NC(=O)c4ccc(Cl)cc4)ccc3[nH]2)cc1)c1ccc(Cl)cc1", "REPORTED_RESULT": 37}
{"COMPOUND": "CC1CCCCN1CCCNC(=O)c1ccc2c(c1)sc1nc(-c3ccc(F)cc3)cn12 (stereo not given)", "REPORTED_RESULT": 0}

For reference, reported % Cell Death for "Cc1cc(N2CCCC2)nc(Nc2ccc(NC(=O)CCc3ccccc3)cc2)n1" stands at 30

For reference, reported % Cell Death for OC(CNCC1CCCO1)Cn1c2ccc(Cl)cc2c2cc(Cl)ccc21 (stereo not given) stands at 15

====

Assay: MMV: MTT Cytotoxicity Assay Day 7 pi of Assay #6 (compound washed out Day 1 pi), U87-CD4-CCR5 cells, % cell death @ 5mM compound
Type: toxicity, cell-based
Conditions: human, u87-cd4-ccr5, 5000 µM
Item-by-item account of % Cell Death
Could you respond with only the numeric value?

Answered examples (6):
{"MOLECULE": "CCOc1ccccc1CNC(=O)C1c2ccccc2C(=O)N(CC(C)C)C1c1cccs1 (stereo not given)", "% Cell Death": 2}
{"MOLECULE": "Cn1c(=O)c2cc(C(=O)NCCCN3CCCCCC3)sc2c2ccccc21", "% Cell Death": 35}
{"MOLECULE": "COc1cc(C(=O)Nc2nc3c(cc4c5c(cccc53)CC4)s2)cc(OC)c1OC", "% Cell Death": 42}
{"MOLECULE": "CCc1ccc(CNCC(O)c2ccccc2)cc1.Cl (stereo not given)", "% Cell Death": -3}
{"MOLECULE": "Cc1ccccc1OCCSc1nc2ccc(NC(=O)c3cccs3)cc2s1", "% Cell Death": 103}
{"MOLECULE": "COc1ccc(C2Sc3ccccc3N=C3C2=C(O)c2ccccc23)cc1 (stereo not given)", "% Cell Death": 7}

For reference, reported % Cell Death for "COc1ccccc1N1C(=N)SC(=Cc2ccc(OCc3ccccc3F)cc2)C1=O" stands at 23

For reference, reported % Cell Death for CSC1=NC(=Nc2c(C)cccc2C)C2(CCC(C(C)(C)C)CC2)N1c1ccc(Cl)cc1 (stereo not given) stands at 1

For reference, reported % Cell Death for COc1ccc2c(c1OC)C(=O)N1c3ccccc3N=C(c3ccc(C)cc3)CC21 (stereo not given) stands at 17

For reference, reported % Cell Death for "COc1ccc(-c2cc(=O)oc3c4c(ccc23)OCN(Cc2ccc(F)cc2)C4)cc1" stands at 16

For reference, reported % Cell Death for "CC1=C(CC(=O)c2cccc([N+](=O)[O-])c2)C(=O)c2ccccc2C1=O" stands at 100

For reference, reported % Cell Death for "CCOc1ccc(-c2nonc2NC(=O)c2cccc(C)c2)cc1OCC" stands at -8

====

Test: MMV: MTT Cytotoxicity Assay Day 3 pi, U87-CD4-CXCR4 cells, % cell death @ 5mM compound
Assay type: toxicity, cell-based
Conditions: human, u87-cd4-cxcr4, 5000 µM
ENDPOINT_NAME: % Cell Death
Could you respond with only the numeric value?

Answered examples (4):
{"COMPOUND": "CCn1nc(-c2ccc(C(=O)OC)cc2)nc2c(=O)n(C)c(=O)nc1-2", "ENDPOINT_NAME": "% Cell Death", "REPORTED_RESULT": 21}
{"COMPOUND": "COc1ccc(NC(=O)C2c3ccccc3C(=O)N(CC(C)C)C2c2cccs2)cc1 (stereo not given)", "ENDPOINT_NAME": "% Cell Death", "REPORTED_RESULT": 13}
{"COMPOUND": "CN1C=C(c2ccc3ccccc3n2)C(c2c[nH]c3ccccc23)c2ccccc21 (stereo not given)", "ENDPOINT_NAME": "% Cell Death", "REPORTED_RESULT": 46}
{"COMPOUND": "COc1ccc2nc(C)cc(Nc3ccccc3O)c2c1", "ENDPOINT_NAME": "% Cell Death", "REPORTED_RESULT": 30}

Could you now look at the following compound, please?
For reference, reported % Cell Death for Cc1ccnc(NC(c2cccc(OCc3ccccc3)c2)c2ccc3cccnc3c2O)c1 (stereo not given) stands at -12

====

Test: MMV: MTT Cytotoxicity Assay Day 7 pi of Assay #10 (NO washout), U87-CD4-CCR5 cells, % cell death @ 5mM compound
Type: toxicity, cell-based
Conditions: human, u87-cd4-ccr5, 5000 µM
Item-by-item account of % Cell Death
Could you respond with only the numeric value?

{"MOLECULE": "Oc1ccc(-c2nc(-c3ccc4oc5ccc(-c6[nH]c(-c7ccc(O)cc7)nc6-c6ccccc6)cc5c4c3)c(-c3ccccc3)[nH]2)cc1", "REPORTED_RESULT": 56}
{"MOLECULE": "O=C(Nc1cccc(C(F)(F)F)c1)c1cc(Cl)ccc1O", "REPORTED_RESULT": 124}
{"MOLECULE": "CCc1ccc(Nc2cc(C)c3ccc(O)cc3n2)cc1.Cl", "REPORTED_RESULT": 130}
{"MOLECULE": "O=C(NC1CCCCC1)C(c1cccs1)N(CCc1ccccc1)C(=O)c1ccco1 (stereo unspecified)", "REPORTED_RESULT": 90}
{"MOLECULE": "COc1cccc(C(=O)Nc2ccc(-c3nc4ccccc4[nH]3)cc2)c1", "REPORTED_RESULT": 34}
{"MOLECULE": "CCCCCCc1cc(O)c2c3c(c(=O)oc2c1)CCC(C)C3 (stereo unspecified)", "REPORTED_RESULT": 26}
{"MOLECULE": "O=C1c2ccccc2C2=Nc3ccccc3SC(c3cccc(F)c3)C12 (stereo unspecified)", "REPORTED_RESULT": 7}
{"MOLECULE": "Nc1ccn([C@@H]2O[C@H](CO)[C@@H](O)[C@H]2O)c(=O)n1", "REPORTED_RESULT": 26}
{"MOLECULE": "COc1ccccc1CNC(=O)CCn1c(=O)[nH]c2ccsc2c1=O", "REPORTED_RESULT": -16}
{"MOLECULE": "Brc1ccc(Nc2nc3ccccc3nc2Nc2ccc(Br)cc2)cc1", "REPORTED_RESULT": 28}

Could you now look at the following molecule, please?
For reference, reported % Cell Death for "CN1CCN(c2ccc(Nc3c4ccccc4nc4ccccc34)cc2)CC1" stands at 19

====

Assay: MMV: MTT Cytotoxicity Assay Day 7 pi of Assay #7 (compound washed out Day 1 pi), U87-CD4-CXCR4 cells, % cell death @ 5mM compound
Type: toxicity, cell-based
Settings: human, u87-cd4-cxcr4, 5000 µM
Item-by-item account of % Cell Death
Could you respond with only the numeric value?

Answered examples (10):
{"COMPOUND": "CCOC(=O)c1c(C)n(-c2ccc(Cl)cc2)c2ccc(OC(=O)C=Cc3ccccc3)cc12", "% Cell Death": -5}
{"COMPOUND": "Cl.Clc1cc(Br)ccc1-c1ccc(CNCC2CCNCC2)o1", "% Cell Death": 4}
{"COMPOUND": "Cc1cc(Nc2ccc(C)c(Cl)c2)n2nc(C(F)(F)F)nc2n1", "% Cell Death": -28}
{"COMPOUND": "CN1CCN(c2ncnc3c2[nH]c2ccc(Cl)cc23)CC1", "% Cell Death": -25}
{"COMPOUND": "O=C(NCC1Cc2cccc(-c3ccncc3)c2O1)c1csc2c1CCCC2 (stereo not given)", "% Cell Death": -22}
{"COMPOUND": "CC1CN(C(=O)c2sc3ccccc3c2Cl)CC(C)O1 (stereo not given)", "% Cell Death": 45}
{"COMPOUND": "CCOc1c(Br)cc(C2C(C(=O)OC)=CN(C)C=C2C(=O)OC)cc1OC", "% Cell Death": 19}
{"COMPOUND": "CCCN(CCC)CCCNC(=O)c1cc2c(-c3ccc(OC)c(OC)c3)nn(C)c2s1", "% Cell Death": -24}
{"COMPOUND": "CN(N=O)C1=C(NC2CCCCC2)C(=O)c2ccccc2C1=O", "% Cell Death": 36}
{"COMPOUND": "CCCCCCOC(=O)C1=C(C)NC(=O)NC1c1ccccc1F (stereo not given)", "% Cell Death": -33}

For reference, reported % Cell Death for "CCOc1ccc(/C=C/c2nc(=O)c3ccccc3o2)cc1" stands at -27

For reference, reported % Cell Death for "COc1ccc(-c2nc(N3CCN(C(=O)C4CCCCC4)CC3)c3c4c(sc3n2)CCCC4)cc1" stands at -26

For reference, reported % Cell Death for "CCN1CCN(c2c(C(=O)c3ccccc3)cnc3cc(OC)c(OC)cc23)CC1" stands at -11

For reference, reported % Cell Death for O=C(Cc1ccccc1)NC(c1ccc(Cl)cc1)c1c(O)ccc2ccccc12 (stereo not given) stands at -8

For reference, reported % Cell Death for "Cc1cc(Nc2ccc(Cl)cc2)n2nc(C(F)(F)F)nc2n1" stands at -20

For reference, reported % Cell Death for CC1CCCCN1CCCNC(=O)c1ccc2c(c1)sc1nc(-c3ccc(F)cc3)cn12 (stereo not given) stands at -50

For reference, reported % Cell Death for "Cc1ccc(Cl)cc1N1CCN(CCCNC(=O)C2CCN(c3nc4ccccc4[nH]3)CC2)CC1" stands at -32

For reference, reported % Cell Death for CC(O)(c1ccc(Cl)cc1)C(CN1CCCCC1)c1ccccc1.Cl (stereo not given) stands at -24

For reference, reported % Cell Death for "Cc1ccc(Nc2nc(N)c3ccccc3n2)cc1Cl" stands at -9

For reference, reported % Cell Death for "CCOC(=O)c1cnc2ccc(OC)cc2c1NCc1ccccc1" stands at 12

For reference, reported % Cell Death for "CCCCN(CCCC)S(=O)(=O)c1ccc(NC(=O)c2ccco2)cc1" stands at 41

For reference, reported % Cell Death for "O=C(NCc1ccco1)C1CCN(S(=O)(=O)c2ccc(Br)cc2)CC1" stands at -9

For reference, reported % Cell Death for "CCCCOC(=O)c1ccc(Nc2cc(C)nc3ccc(OC)cc23)cc1" stands at -10

For reference, reported % Cell Death for OC1=C2C(=Nc3ccccc3SC2c2ccc(Br)cc2)c2ccccc21 (stereo not given) stands at 7

For reference, reported % Cell Death for CC1CC2=C(CC1CNCCCN(C)C)C(C)(C)CCC2 (stereo not given) stands at 23
